All figures here come from ChEMBL document CHEMBL2429768.

Test system: Escherichia coli
assay remarks: Antibacterial activity against Escherichia coli ATCC 8739 at 200 ug/ml after 24 hrs by agar well diffusion method
Type: functional
condition parameters: ATCC 8739, 24 h, read-out: DIZ

# molecule, system name, zone of inhibition at 200 µg/mL [mm]
measured = [
    ("CCn1cc(C=C2C(=O)OC(C)(C)OC2=O)c2cc(OC)ccc21", "Escherichia coli", 13),
    ("CCn1cc(C=C2C(=O)OC(C)(C)OC2=O)c2ccccc21", "Escherichia coli", 16),
    ("CCn1cc(C=C2C(=O)OC(C)(C)OC2=O)c2cc(Br)ccc21", "Escherichia coli", 13),
    ("CC1(C)OC(=O)C(=Cc2c[nH]c3ccc(Br)cc23)C(=O)O1", "Escherichia coli", 16),
    ("Cn1cc(C=C2C(=O)OC(C)(C)OC2=O)c2cc([N+](=O)[O-])ccc21", "Escherichia coli", 16),
    ("Cn1cc(C=C2C(=O)OC(C)(C)OC2=O)c2cc(Br)ccc21", "Escherichia coli", 14),
    ("Cn1cc(C=C2C(=O)OC(C)(C)OC2=O)c2ccccc21", "Escherichia coli", 16),
    ("CC1(C)OC(=O)C(=Cc2c[nH]c3ccccc23)C(=O)O1", "Escherichia coli", 18),
    ("CN[C@@H]1[C@H](O[C@H]2[C@H](O[C@H]3[C@H](O)[C@@H](O)[C@H](N=C(N)N)[C@@H](O)[C@@H]3N=C(N)N)O[C@@H](C)[C@]2(O)C=O)O[C@@H](CO)[C@H](O)[C@H]1O [STREPTOMYCIN]", "Escherichia coli", 23),
]
